Target: PIK3CB (Homo sapiens, UniProt P42338)
Sequence (P42338 whole entry): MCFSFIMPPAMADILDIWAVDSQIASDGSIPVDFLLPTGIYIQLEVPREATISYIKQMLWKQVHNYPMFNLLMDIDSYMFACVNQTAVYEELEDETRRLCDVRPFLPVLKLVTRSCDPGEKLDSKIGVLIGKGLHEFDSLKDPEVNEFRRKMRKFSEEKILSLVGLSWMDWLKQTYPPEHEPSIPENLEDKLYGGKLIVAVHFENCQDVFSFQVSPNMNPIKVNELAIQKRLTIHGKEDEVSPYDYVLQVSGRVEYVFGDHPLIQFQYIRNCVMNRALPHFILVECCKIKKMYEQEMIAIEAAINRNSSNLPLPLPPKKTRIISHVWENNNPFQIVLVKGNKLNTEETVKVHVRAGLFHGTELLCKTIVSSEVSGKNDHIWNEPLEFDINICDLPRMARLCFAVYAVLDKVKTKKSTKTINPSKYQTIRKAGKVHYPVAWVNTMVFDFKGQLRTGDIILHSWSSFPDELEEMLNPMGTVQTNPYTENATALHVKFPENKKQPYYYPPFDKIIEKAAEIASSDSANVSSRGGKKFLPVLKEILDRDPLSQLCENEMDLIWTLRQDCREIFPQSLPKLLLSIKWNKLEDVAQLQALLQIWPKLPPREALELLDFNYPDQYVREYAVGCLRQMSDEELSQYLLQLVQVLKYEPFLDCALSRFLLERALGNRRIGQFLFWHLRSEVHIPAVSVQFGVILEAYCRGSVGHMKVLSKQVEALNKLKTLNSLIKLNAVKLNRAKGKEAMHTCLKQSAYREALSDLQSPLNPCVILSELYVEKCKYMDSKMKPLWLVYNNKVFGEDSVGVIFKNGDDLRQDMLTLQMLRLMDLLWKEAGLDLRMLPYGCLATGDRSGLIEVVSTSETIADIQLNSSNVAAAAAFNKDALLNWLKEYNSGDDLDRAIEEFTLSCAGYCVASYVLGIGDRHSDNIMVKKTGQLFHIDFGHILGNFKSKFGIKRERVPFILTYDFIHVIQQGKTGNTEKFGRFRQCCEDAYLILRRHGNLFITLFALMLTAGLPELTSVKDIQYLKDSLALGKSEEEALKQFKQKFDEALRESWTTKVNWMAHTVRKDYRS
property: Kd

// query Sample CNC(=O)c1cccc(-c2ccc3c(N4C5CCC4COC5)nc(N4CCOC[C@@H]4C)nc3n2)c1 — what was its Kd?
// result > 1000 nM

###

Target: PIK3CA (Homo sapiens, UniProt P42336)
Sequence (P42336 whole entry): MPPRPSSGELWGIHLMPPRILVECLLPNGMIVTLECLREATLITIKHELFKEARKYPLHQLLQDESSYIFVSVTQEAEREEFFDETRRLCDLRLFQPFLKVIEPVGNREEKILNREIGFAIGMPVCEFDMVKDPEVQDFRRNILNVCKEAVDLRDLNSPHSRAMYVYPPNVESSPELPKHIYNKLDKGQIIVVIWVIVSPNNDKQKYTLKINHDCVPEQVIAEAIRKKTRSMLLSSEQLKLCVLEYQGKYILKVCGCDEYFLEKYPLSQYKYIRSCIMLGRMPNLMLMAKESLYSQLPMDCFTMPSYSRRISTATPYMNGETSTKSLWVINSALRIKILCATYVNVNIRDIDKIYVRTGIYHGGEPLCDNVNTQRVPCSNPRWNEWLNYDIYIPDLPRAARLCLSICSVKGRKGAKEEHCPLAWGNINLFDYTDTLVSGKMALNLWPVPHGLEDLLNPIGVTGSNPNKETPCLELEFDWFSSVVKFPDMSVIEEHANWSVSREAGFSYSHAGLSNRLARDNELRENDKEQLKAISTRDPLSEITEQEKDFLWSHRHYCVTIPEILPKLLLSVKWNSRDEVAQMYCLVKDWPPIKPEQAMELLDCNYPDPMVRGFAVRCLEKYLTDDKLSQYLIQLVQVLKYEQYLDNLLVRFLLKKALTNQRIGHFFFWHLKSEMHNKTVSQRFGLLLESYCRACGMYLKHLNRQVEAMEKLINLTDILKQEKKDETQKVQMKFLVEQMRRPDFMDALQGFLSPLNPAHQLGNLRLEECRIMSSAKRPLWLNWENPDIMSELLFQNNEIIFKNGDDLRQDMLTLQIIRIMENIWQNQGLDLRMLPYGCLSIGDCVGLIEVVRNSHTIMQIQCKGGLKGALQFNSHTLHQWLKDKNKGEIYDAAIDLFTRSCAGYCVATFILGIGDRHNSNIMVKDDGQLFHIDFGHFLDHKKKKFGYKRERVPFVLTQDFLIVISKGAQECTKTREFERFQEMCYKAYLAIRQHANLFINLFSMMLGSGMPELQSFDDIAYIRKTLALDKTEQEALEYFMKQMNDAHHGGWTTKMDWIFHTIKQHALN
property: Kd

// query Requested field: Kd. Item: CNC(=O)c1cccc(-c2ccc3c(N4C5CCC4COC5)nc(N4CCOC[C@@H]4C)nc3n2)c1
// result > 1000 nM

###

Molecular target: UniProt:P48736
Sequence (P48736 whole entry): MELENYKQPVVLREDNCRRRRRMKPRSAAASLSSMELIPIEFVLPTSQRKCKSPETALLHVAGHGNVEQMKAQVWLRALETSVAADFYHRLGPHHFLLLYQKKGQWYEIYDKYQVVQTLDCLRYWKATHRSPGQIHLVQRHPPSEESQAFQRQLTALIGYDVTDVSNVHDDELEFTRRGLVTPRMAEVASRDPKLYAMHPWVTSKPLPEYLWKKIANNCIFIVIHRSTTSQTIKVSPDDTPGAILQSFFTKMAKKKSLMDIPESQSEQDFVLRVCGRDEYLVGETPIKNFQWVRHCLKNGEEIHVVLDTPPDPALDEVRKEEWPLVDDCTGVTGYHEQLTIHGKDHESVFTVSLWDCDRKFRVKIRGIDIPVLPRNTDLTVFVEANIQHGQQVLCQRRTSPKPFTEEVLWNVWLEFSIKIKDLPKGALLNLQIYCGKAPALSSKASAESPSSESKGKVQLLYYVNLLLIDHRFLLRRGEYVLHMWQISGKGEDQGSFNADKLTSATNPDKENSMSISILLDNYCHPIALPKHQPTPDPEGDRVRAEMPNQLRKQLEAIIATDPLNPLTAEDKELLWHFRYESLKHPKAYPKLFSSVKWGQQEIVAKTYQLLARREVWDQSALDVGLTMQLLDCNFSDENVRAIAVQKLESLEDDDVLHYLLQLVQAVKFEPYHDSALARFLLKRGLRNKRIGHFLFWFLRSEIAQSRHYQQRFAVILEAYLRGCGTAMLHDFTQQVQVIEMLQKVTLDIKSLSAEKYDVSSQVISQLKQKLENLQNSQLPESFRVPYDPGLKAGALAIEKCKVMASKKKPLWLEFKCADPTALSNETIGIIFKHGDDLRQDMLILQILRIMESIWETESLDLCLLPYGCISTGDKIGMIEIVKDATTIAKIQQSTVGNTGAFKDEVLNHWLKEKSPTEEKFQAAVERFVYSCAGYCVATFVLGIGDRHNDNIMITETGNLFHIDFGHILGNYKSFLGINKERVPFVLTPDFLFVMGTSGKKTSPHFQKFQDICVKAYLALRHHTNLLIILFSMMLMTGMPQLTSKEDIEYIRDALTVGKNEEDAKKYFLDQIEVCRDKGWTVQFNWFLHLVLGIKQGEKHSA
Assay: KINOMEscan binding assay
pKd: −log10 of the molar value.
property: pKd

// query State the recorded pKd for this entry: CNC(=O)c1cccc(-c2ccc3c(N4C5CCC4COC5)nc(N4CCOC[C@@H]4C)nc3n2)c1 [MTI-31]
// result < 6.00
